Molecular target: Human autotaxin enzyme (Homo sapiens, UniProt Q13822)
Construct: purchased R&D System
Assay: Evaluation of autotaxin inhibitor, Method B (Test Example 2): TG-mTMP fluorescence
Format: biochemical
Conditions: Assay Method B (Test Example 2), human autotaxin; read-out: Inhibitory Activity (autotaxin enzyme inhibitory activity, IC50 class)
Hi there, I'd appreciate the recorded IC50 for every entry that follows.

[in] Recorded IC50 for CCCCCn1c(N2CCNCC2)cc(=O)n2cc(-c3ccc(Cl)cc3)nc12 with Human autotaxin enzyme (Homo sapiens, UniProt Q13822), please?
[out] < 10 nM

[in] Recorded IC50 for CCCCCn1c(C)c(CCOCC)c(=O)n2cc(-c3ccc(Cl)cc3)nc12 [Compound 214] with Human autotaxin enzyme (Homo sapiens, UniProt Q13822), please?
[out] < 10 nM

[in] Recorded IC50 for CCCCCn1c(-c2cscn2)cc(=O)n2cc(-c3ccc(Cl)cc3)nc12 with Human autotaxin enzyme (Homo sapiens, UniProt Q13822), please?
[out] 10 to 100 nM

[in] Recorded IC50 for CCCCCn1c(C)cc(=O)n2cc(-c3ccc4c(c3)CCC4)nc12 with Human autotaxin enzyme (Homo sapiens, UniProt Q13822), please?
[out] 100 to 1000 nM

[in] Recorded IC50 for CCCCCn1c(NC2CCCC2)cc(=O)n2cc(-c3ccc(Cl)cc3)nc12 with Human autotaxin enzyme (Homo sapiens, UniProt Q13822), please?
[out] 10 to 100 nM

[in] Recorded IC50 for CCCCCn1c(/C=C/c2ccccc2)cc(=O)n2cc(-c3ccc(Cl)cc3)nc12 with Human autotaxin enzyme (Homo sapiens, UniProt Q13822), please?
[out] 10 to 100 nM

[in] Recorded IC50 for CCCCCn1c(C)cc(=O)n2cc(-c3ccc4occc4c3)nc12 with Human autotaxin enzyme (Homo sapiens, UniProt Q13822), please?
[out] 100 to 1000 nM

[in] Recorded IC50 for CCCCCn1c(-c2ccc(N3CCOCC3)cc2)cc(=O)n2cc(-c3ccc(Cl)cc3)nc12 with Human autotaxin enzyme (Homo sapiens, UniProt Q13822), please?
[out] 10 to 100 nM

[in] Recorded IC50 for CCCCCn1c(N2CCCC2C)cc(=O)n2cc(-c3ccc(Cl)cc3)nc12 (centres unmarked) with Human autotaxin enzyme (Homo sapiens, UniProt Q13822), please?
[out] 10 to 100 nM

[in] Recorded IC50 for Cc1cc(=O)n2cc(-c3ccc(Cl)cc3)nc2n1Cc1ccc(Br)cc1F with Human autotaxin enzyme (Homo sapiens, UniProt Q13822), please?
[out] 10 to 100 nM

[in] Recorded IC50 for Cc1cc(=O)n2cc(-c3ccc(Cl)cc3)nc2n1Cc1ccc2ccccc2c1 with Human autotaxin enzyme (Homo sapiens, UniProt Q13822), please?
[out] 100 to 1000 nM

[in] Recorded IC50 for CCCCCn1c(C)cc(=O)n2cc(-c3ccc(OC)cc3)nc12 with Human autotaxin enzyme (Homo sapiens, UniProt Q13822), please?
[out] 10 to 100 nM

[in] Recorded IC50 for CCCCCn1c(C)c(CC)c(=O)n2cc(-c3ccc(Cl)cc3)nc12 with Human autotaxin enzyme (Homo sapiens, UniProt Q13822), please?
[out] 10 to 100 nM

[in] Recorded IC50 for CCCCCn1c(-c2ccc(N(C)CC3CCCCO3)cc2)cc(=O)n2cc(-c3ccc(Cl)cc3)nc12 (centres unmarked) with Human autotaxin enzyme (Homo sapiens, UniProt Q13822), please?
[out] 10 to 100 nM

[in] Recorded IC50 for O=C(O)c1ccc(CNc2cc(=O)n3cc(-c4ccc(Cl)cc4)nc3n2CCCC(F)(F)F)cc1 with Human autotaxin enzyme (Homo sapiens, UniProt Q13822), please?
[out] < 10 nM

[in] Recorded IC50 for CCCCCn1c(Oc2ccc(-c3ccccc3)cc2)cc(=O)n2cc(-c3ccc(Cl)cc3)nc12 with Human autotaxin enzyme (Homo sapiens, UniProt Q13822), please?
[out] > 1000 nM

[in] Recorded IC50 for N#Cc1ccc(-c2cn3c(=O)cc(-c4ccc(C(=O)NCCN5CCOCC5)cc4)n(CCCC(F)(F)F)c3n2)cc1 with Human autotaxin enzyme (Homo sapiens, UniProt Q13822), please?
[out] < 10 nM

###

Molecular target: Human autotaxin enzyme (Homo sapiens)
Construct: purchased R&D System
Test: Evaluation of autotaxin inhibitor, Method C (Test Example 3): 18:0 Lyso PC, choline assay, Resorufin fluorescence
Assay type: biochemical
Details: Assay Method C (Test Example 3), human autotaxin, 18:0 Lyso PC substrate; read-out: Inhibitory Activity (autotaxin enzyme inhibitory activity, IC50 class)
pIC50: −log10 of the molar value.
Recorded endpoint: pIC50

[in] Any idea what pIC50 was measured for CCCCCn1c(-c2ccc(C(=O)NCC3CC3)cc2)cc(=O)n2cc(-c3ccc(Cl)cc3)nc12 [Compound 483] ?
[out] 7.00 to 8.00

[in] Any idea what pIC50 was measured for CCCCCn1c(N2CCC[C@H]2C(=O)NCCCN2CCCC2=O)cc(=O)n2cc(-c3ccc(Cl)cc3)nc12 [Compound 642] ?
[out] 7.00 to 8.00

[in] Any idea what pIC50 was measured for CCCCCn1c(N2CCC[C@H]2C(=O)N(C)CC(N)=O)cc(=O)n2cc(-c3ccc(Cl)cc3)nc12 [Compound 704] ?
[out] 7.00 to 8.00

[in] Any idea what pIC50 was measured for CCCCCn1c(OC2CN(CC(=O)O)C2)cc(=O)n2cc(-c3ccc(Cl)cc3)nc12 [Compound 577] ?
[out] > 8.00

[in] Any idea what pIC50 was measured for CCCCCn1c(N2CCC[C@H]2C(=O)NCCN2CCCC2=O)cc(=O)n2cc(-c3ccc(Cl)cc3)nc12 [Compound 341] ?
[out] 7.00 to 8.00

[in] Any idea what pIC50 was measured for CCCCCn1c(N2C[C@H](F)C[C@H]2C(=O)NC(C)(C)CC(=O)OCC)cc(=O)n2cc(-c3ccc(Cl)cc3)nc12 [Compound 595] ?
[out] 6.00 to 7.00

[in] Any idea what pIC50 was measured for CCCCCn1c(-c2ccc(C(=O)NCCS(N)(=O)=O)cc2)cc(=O)n2cc(-c3ccc(Cl)cc3)nc12 [Compound 499] ?
[out] 7.00 to 8.00

###

Molecular target: Human autotaxin enzyme (Homo sapiens)
Construct: purchased R&D System
Test: Evaluation of autotaxin inhibitor, Method B (Test Example 2): TG-mTMP fluorescence
Assay type: biochemical
Settings: Assay Method B (Test Example 2), human autotaxin; read-out: Inhibitory Activity (autotaxin enzyme inhibitory activity, IC50 class)
Protocol: (Method B) Evaluation of Autotaxin Inhibitor Solution A containing 25 mM Tris-HCl buffer (pH7.5), 100 mM NaCl, 5 mM MgCl2 and 0.1% BSA was prepared. […] 5 μl of 150 mM EDTA in Solution A was added to quench the reaction, and the fluorescent dye TokyoGreen, which was produced by the reaction, was detected. The fluorescence was detected using ViewLux (PerkinElmer, Inc.) with an excitation wavelength of 480 nm and a fluorescence wavelength of 540 nm.
Recorded endpoint: IC50

[in] Any idea what IC50 was measured for CCCCCn1c(NCC(=O)N2CCN(C)CC2)cc(=O)n2cc(-c3ccc(Cl)cc3)nc12 ?
[out] < 10 nM

[in] Any idea what IC50 was measured for CCCCCn1c(N2CCC(C)C2)cc(=O)n2cc(-c3ccc(Cl)cc3)nc12 (stereo not drawn) ?
[out] < 10 nM

[in] Any idea what IC50 was measured for CCCCCn1c(-c2cccc(OC)c2)cc(=O)n2cc(-c3ccc(Cl)cc3)nc12 ?
[out] 10 to 100 nM

[in] Any idea what IC50 was measured for CCCCCn1c(NCCc2ccccc2)cc(=O)n2cc(-c3ccc(Cl)cc3)nc12 ?
[out] 10 to 100 nM

[in] Any idea what IC50 was measured for CCCCCn1c(/C=C/COC)cc(=O)n2cc(-c3ccc(Cl)cc3)nc12 ?
[out] 10 to 100 nM

[in] Any idea what IC50 was measured for CCCCCn1c(COCc2ccccc2)cc(=O)n2cc(-c3ccc(Cl)cc3)nc12 ?
[out] 10 to 100 nM

[in] Any idea what IC50 was measured for CCCCCn1c(C)cc(=O)n2cc(-c3ccccc3F)nc12 ?
[out] 100 to 1000 nM

[in] Any idea what IC50 was measured for CCCCCn1c(C)c(CCCC)c(=O)n2cc(-c3ccc(Cl)cc3)nc12 ?
[out] 100 to 1000 nM

[in] Any idea what IC50 was measured for CCCCCn1c(Oc2nccs2)cc(=O)n2cc(-c3ccc(Cl)cc3)nc12 ?
[out] < 10 nM

[in] Any idea what IC50 was measured for CCCc1cn2c(=O)ccn(CCc3ccc(Cl)cc3)c2n1 ?
[out] > 1000 nM

[in] Any idea what IC50 was measured for CCCCCn1c(C)c(C(=O)O)c(=O)n2cc(-c3ccc(Cl)cc3)nc12 ?
[out] 100 to 1000 nM

[in] Any idea what IC50 was measured for CCCCCn1c(OCCC)cc(=O)n2cc(-c3ccc(Cl)cc3)nc12 ?
[out] 10 to 100 nM

[in] Any idea what IC50 was measured for CCCCCn1c(C)cc(=O)n2cc(-c3ccc(OC(F)(F)F)cc3)nc12 ?
[out] < 10 nM

[in] Any idea what IC50 was measured for CCCCCn1c(N(C)C)cc(=O)n2cc(-c3ccc(Cl)cc3)nc12 ?
[out] < 10 nM

[in] Any idea what IC50 was measured for Cc1cc(=O)n2cc(-c3ccc(Cl)cc3)nc2n1Cc1cccc(F)c1 ?
[out] 10 to 100 nM

[in] Any idea what IC50 was measured for Cc1cc(=O)n2cc(-c3ccc(Cl)cc3)nc2n1Cc1ccc(C(N)=O)cc1 ?
[out] 10 to 100 nM

[in] Any idea what IC50 was measured for CCCCCn1c(C)cc(=O)n2cc(-c3ccc(Cl)cc3Cl)nc12 ?
[out] 10 to 100 nM

[in] Any idea what IC50 was measured for CCCCCn1c(-c2ccoc2)cc(=O)n2cc(-c3ccc(Cl)cc3)nc12 ?
[out] 10 to 100 nM

Hello, the source for this data is patent US20160002247A1, in case you need it.
